Attribute: Inhibition
# Test system: Staphylococcus aureus
# CONDITION_SUMMARY: Concentration 32 ug.mL-1;; ASSAY_TEST Inhibition of Bacterial Growth; detection method Absorption (OD600); MEDIA CAMHB; plate type 384well; NBS; CORNING #3640; time 18 hr
# Description: Antibacterial activity against Staphylococcus aureus MRSA ATCC 43300 (CO-ADD:GP_020); MIC in CAMBH media, using NBS plates, by OD(600)
Potency and affinity values are given separately.
Param answer (str): number followed by unit.

CHEMICAL_STRING | Inhibition
COc1ccccc1NC(=O)Cn1nc2c3cc(-c4ccc(Cl)cc4)nn3ccn2c1=O | 5.68%
CCOC(=O)c1ccc(NC(=O)Cn2nc3ccc(S(=O)(=O)C(C)(C)C)nn3c2=O)cc1 | 5.05%
CCOc1ccc(N(Cc2cccc(F)c2)S(=O)(=O)c2ccc3nncn3c2)cc1 | 8.4%
O=c1c2nn(Cc3cccc(F)c3)c(=O)n2ccn1-c1ccccc1 | -1.92%
Cc1nnc2c(SCC(=O)Nc3ccc4c(c3)OCCO4)nc3ccccc3n12 | 5.53%

Prompt: Record request: Inhibition value, item COc1ccc(NC(=O)Cn2nc3c(Oc4ccccc4)nccn3c2=O)cc1
Completion: 9.87%

---

# System: Staphylococcus aureus
# CONDITION_SUMMARY: Concentration 32 ug.mL-1;; ASSAY_TEST Inhibition of Bacterial Growth; detection method Absorption (OD600); MEDIA CAMHB; plate type 384well; NBS; CORNING #3640; time 18 hr
Entries with a potency or affinity are not part of this list.
# Inhibition listing for each entry below
Expressed in %, but write only the number.

Solved cases below.
CHEMICAL_STRING | PROPERTY_LABEL | MEAS_VALUE
O=C(Cn1nc2ccc(-c3ccccc3)nn2c1=O)N1CCN(c2ccc(F)cc2)CC1 | Inhibition | 10.02
CC(C)CCn1c(=O)c2sccc2n2c(=O)n(CC(=O)N3CCC(Cc4ccccc4)CC3)nc12 | Inhibition | -19.02
COc1ccccc1-n1ccn2c(SCC#N)nnc2c1=O | Inhibition | 15.53
Cc1ccccc1NC(=O)Cn1nc2c3cc(-c4ccc(Cl)cc4)nn3ccn2c1=O | Inhibition | 14.21

Prompt: Which Inhibition is reported with Staphylococcus aureus for this entry: N#Cc1cccc(NC(=O)Cn2nc3c(Oc4ccccc4)nccn3c2=O)c1 ?
Completion: 10.16

Prompt: Can you look up Inhibition on Staphylococcus aureus for COc1ccc(NC(=O)Cn2nc3nc(N4CCCCCC4)ccn3c2=O)cc1Cl ?
Completion: -1.58

Prompt: For the record Cc1ccc(NC(=O)CSc2nnc3ccc(C(=O)Nc4cccc(F)c4)cn23)c(C)c1 , what value of Inhibition is listed for Staphylococcus aureus?
Completion: 12.19

Prompt: Missing value: Inhibition, Staphylococcus aureus, entry CCOc1ccc(-n2ccn3c(SCC(=O)c4ccc(C)cc4C)nnc3c2=O)cc1 . Fill in?
Completion: 6.78

---

Catalogue of Inhibition readings, one per entry.
# Tested on: Escherichia coli
# CONDITION_SUMMARY: Concentration 32 ug.mL-1;; ASSAY_TEST Inhibition of Bacterial Growth; detection method Absorption (OD600); MEDIA CAMHB; plate type 384well; NBS; CORNING #3640; time 18 hr
# Description: Antibacterial activity against Escherichia coli ATCC 25922 (CO-ADD:GN_001); MIC in CAMBH media using NBS plates, by OD(600)
Results with a measured potency or affinity are listed apart.
Hi! Could you send only the number? It should be in %, unit omitted.

// solved cases for Inhibition follow
COMPOUND | Inhibition / %
Cc1nnc2c(S(=O)(=O)N(Cc3ccc(F)cc3)c3ccc(F)c(F)c3)cccn12 | 3.7
O=C(CSc1nnc2c(=O)n(-c3ccccc3)ccn12)Nc1ccc2c(c1)OCO2 | -2.5

Prompt: So what does the record say about Inhibition for CCc1nnc2c(SCC(=O)Nc3ccc(OC)c(Cl)c3)nc3ccccc3n12 ?
Completion: 5.47

Prompt: Which Inhibition is listed for COc1cccc(NC(=O)Cn2nc3c4cc(-c5ccc(Cl)cc5)nn4ccn3c2=O)c1 ?
Completion: 3.44

Prompt: # input compound: Cc1ccc(-c2cc3c4nn(CC(=O)Nc5ccc(F)cc5)c(=O)n4ccn3n2)cc1C ; wanted: its Inhibition
Completion: -8.95

Prompt: Quick one: Inhibition for CC1CC(C)CN(c2nccn3c(=O)n(CC(=O)NCc4ccccc4Cl)nc23)C1 (stereo not given) ?
Completion: 2.48
